Test: Human HepG2 cell viability assay in 384 well format
Format: toxicity, cell-based
Parameters: dose 125 nL, time 70.5 hour; concentration not given beside the values
Settings: HepG2 cells, read-out: Inhibition
Observable: cytotoxicity at 70.5 h (%)
All answers are understood in %, so give the number only.

Kindly note the recorded cytotoxicity at 70.5 h for CCC(C)NS(=O)(=O)c1ccc(C(=O)N(C)C2(C#N)CCC2)cc1 (stereo not given) , which is -23.6

Kindly note the recorded cytotoxicity at 70.5 h for "Cn1ccnc1C1CCN(S(=O)(=O)c2ccc3oc(=O)[nH]c3c2)CC1" , which is -9.3

Kindly note the recorded cytotoxicity at 70.5 h for "Cc1noc(C)c1CNc1cccc(C(=O)N(C)c2ccccc2)c1" , which is 14.2

Kindly note the recorded cytotoxicity at 70.5 h for Cc1nsc(NC(=O)N2CCCCC2CCCO)n1 (stereo not given) , which is -1.47

Kindly note the recorded cytotoxicity at 70.5 h for Cc1cc(CN(C)C2CCCN(Cc3noc(C4CC4)n3)C2)no1 (stereo not given) , which is 11.8

Kindly note the recorded cytotoxicity at 70.5 h for "CN(CCc1ccccn1)C(=O)Cn1cc(-c2ccccc2)nn1" , which is -3.22

Kindly note the recorded cytotoxicity at 70.5 h for COc1cccc(CN2CCCC(Cn3nc(C)nc3C)C2)c1 (stereo not given) , which is -1.83

Kindly note the recorded cytotoxicity at 70.5 h for "CC(C)CCC(=O)N(C)CC(=O)Nc1ccc(Br)cn1" , which is 43.7

Kindly note the recorded cytotoxicity at 70.5 h for COc1cccc([S+]([O-])CC(=O)NCc2cc(F)cc(F)c2)c1 (stereo not given) , which is -1.69

Kindly note the recorded cytotoxicity at 70.5 h for "O=C(c1ccnnc1)N1C[C@H]2CCC[C@@]2(COCc2ccccn2)C1" , which is -3.81

----------
Can you tell me cytotoxicity at 70.5 h for the items I'm about to list?
Assay: Human HepG2 cell viability assay in 384 well format
Type: toxicity, cell-based
Parameters: dose 125 nL, time 70.5 hour; concentration not given beside the values
Settings: HepG2 cells, read-out: Inhibition

Kindly note the recorded cytotoxicity at 70.5 h for Cc1nc(CN2CC(CO)Oc3ccccc32)sc1C (stereo not drawn) , which is -3.25%

Kindly note the recorded cytotoxicity at 70.5 h for Cc1cc(C)c(CNC(=O)N2CCCC2c2ccccn2)c(=O)[nH]1 (stereo not drawn) , which is -6.29%

Kindly note the recorded cytotoxicity at 70.5 h for NCC1CCN(C2CCN(c3ccc(-c4ccco4)cc3)CC2)C1 (stereo not drawn) , which is 102%

Kindly note the recorded cytotoxicity at 70.5 h for CCc1nc(CN2CCCC2C(=O)NC2CC2)cs1 (stereo not drawn) , which is -7.43%

Kindly note the recorded cytotoxicity at 70.5 h for "Cc1cc(C(=O)NCc2ccnc(N(C)C)c2)c(C)o1" , which is -13.2%

Kindly note the recorded cytotoxicity at 70.5 h for COc1cccc2c1OCC(NCc1cnn(-c3ccccc3F)c1)C2 (stereo not drawn) , which is -0.785%

Kindly note the recorded cytotoxicity at 70.5 h for "COc1cn(CC(N)=O)c(CSc2nc(C)cc(C)n2)cc1=O" , which is 59.2%

Kindly note the recorded cytotoxicity at 70.5 h for "COc1cccc(Cn2cc(N3C(=O)[C@H]4CCCC[C@H]4C3=O)cn2)c1" , which is 26.3%

----------
Assay: Human HepG2 cell viability assay in 384 well format
Format: toxicity, cell-based
Design: dose 125 nL, time 70.5 hour; concentration not given beside the values
Settings: HepG2 cells, read-out: Inhibition
Observable: cytotoxicity at 70.5 h (%)
All answers are understood in %, so give the number only.

Kindly note the recorded cytotoxicity at 70.5 h for Cc1ccc(CNC(=O)C2CCCCN2C(=O)OC(C)(C)C)cn1 (stereo not drawn) , which is -3.38

Kindly note the recorded cytotoxicity at 70.5 h for "Cc1cc(CN2CC[C@@H]3[C@@H](CCC(=O)N3CCc3c[nH]cn3)C2)oc1C" , which is 1.03

Kindly note the recorded cytotoxicity at 70.5 h for "CC(=O)NCCc1ccc(S(=O)(=O)Nc2cc(F)ccc2C)s1" , which is 3.63

Kindly note the recorded cytotoxicity at 70.5 h for "CN1CCC(N(CCc2ccccc2)C(=O)c2ccc(C#N)cc2)CC1" , which is -7.31

Kindly note the recorded cytotoxicity at 70.5 h for "CCC(CC)CN1CCN(CC(=O)Nc2ccc3nsnc3c2)CC1" , which is 3.54

Kindly note the recorded cytotoxicity at 70.5 h for O=C(CC1COCCN1C(=O)c1cscn1)c1ccccc1 (stereo not drawn) , which is -11.8

Kindly note the recorded cytotoxicity at 70.5 h for "O=S(=O)(Cc1ccc(F)cc1)NCc1nnc2n1CCC2" , which is -24.3

Kindly note the recorded cytotoxicity at 70.5 h for "CCS(=O)(=O)c1ncc(CN2CCCC2)n1CCc1ccccc1" , which is -12.5

----------
Test: Human HepG2 cell viability assay in 384 well format
Type: toxicity, cell-based
Design: dose 125 nL, time 70.5 hour; concentration not given beside the values
Details: HepG2 cells, read-out: Inhibition
The threshold is inclusive: cytotoxicity at 70.5 h of exactly -10% counts as 1; values below receive -1.

Exam item: Dear colleague, could you confirm whether CC(CNCc1ccc(F)cc1)Oc1ccccn1 (stereo not given) has cytotoxicity at 70.5 h at or above -10%?
Marked response: -1

Exam item: Dear colleague, could you confirm whether CNC(=O)CCc1cc(C)nc(C2CCCN2)n1 (stereo not given) has cytotoxicity at 70.5 h at or above -10%?
Marked response: -1

Exam item: Dear colleague, could you confirm whether Cc1ncsc1C(=O)N1CCC(c2ccc3c(NC(C)C)n[nH]c3n2)C1 (stereo not given) has cytotoxicity at 70.5 h at or above -10%?
Marked response: -1

Exam item: Dear colleague, could you confirm whether COc1c(CNC2CCc3c(Cl)cccc32)c(C)nn1C (stereo not given) has cytotoxicity at 70.5 h at or above -10%?
Marked response: -1

Exam item: Dear colleague, could you confirm whether "COc1cc(-c2n[nH]c(CO)n2)cc(OC)c1OC" has cytotoxicity at 70.5 h at or above -10%?
Marked response: 1

Exam item: Dear colleague, could you confirm whether "Cc1ccc(C(=O)NCc2cccnc2-n2cncn2)cc1S(C)(=O)=O" has cytotoxicity at 70.5 h at or above -10%?
Marked response: 1

Exam item: Dear colleague, could you confirm whether O=C(O)C1(Cc2cccc(Cl)c2)CCCN(c2ncnc3[nH]ccc23)C1 (stereo not given) has cytotoxicity at 70.5 h at or above -10%?
Marked response: -1

Exam item: Dear colleague, could you confirm whether "CN1CCN(C(=O)C2CCN(c3cccnn3)CC2)CC1" has cytotoxicity at 70.5 h at or above -10%?
Marked response: 1

Exam item: Dear colleague, could you confirm whether CC(NC(N)=O)C(=O)N1CCCN(Cc2nccn2C(C)C)CC1 (stereo not given) has cytotoxicity at 70.5 h at or above -10%?
Marked response: -1

Exam item: Dear colleague, could you confirm whether O=C(c1ccno1)N1CC2(CCC(C(=O)N3CCCC3)O2)C1 (stereo not given) has cytotoxicity at 70.5 h at or above -10%?
Marked response: -1

----------
Assay: Human HepG2 cell viability assay in 384 well format
Format: toxicity, cell-based
Set-up: dose 125 nL, time 70.5 hour; concentration not given beside the values
Settings: HepG2 cells, read-out: Inhibition
Can you tell me cytotoxicity at 70.5 h for the items I'm about to list?
All answers are understood in %, so give the number only.

Kindly note the recorded cytotoxicity at 70.5 h for Cc1cccc(-c2noc(CNC(C)Cn3cc(C)cn3)n2)c1 (stereo not drawn) , which is -0.846

Kindly note the recorded cytotoxicity at 70.5 h for CC(C)CCC(C)NC(=O)c1ccc(OCC(N)=O)cc1 (stereo not drawn) , which is -3.72

Kindly note the recorded cytotoxicity at 70.5 h for "Cc1noc(C)c1CN1CCN(Cc2cccnc2)c2ncccc2C1" , which is -6.13

Kindly note the recorded cytotoxicity at 70.5 h for "O=C(c1cc(F)cc(Cl)c1)N1CCN(CCO)[C@@H]2CS(=O)(=O)C[C@@H]21" , which is -0.458

Kindly note the recorded cytotoxicity at 70.5 h for "CN(Cc1n[nH]c2c1CCC2)C(=O)c1cc(-c2cccn2C)n[nH]1" , which is 25.6

Kindly note the recorded cytotoxicity at 70.5 h for "Cc1nn(C2CCCC2)c2nc(C(C)(C)CN3CCN(C)CC3)[nH]c12" , which is -2.47

Kindly note the recorded cytotoxicity at 70.5 h for CC(C)COCC1CN(Cc2cnn(C)c2)Cc2ncn(C)c21 (stereo not drawn) , which is -7.87

Kindly note the recorded cytotoxicity at 70.5 h for "CS(=O)(=O)NC[C@@H]1OC[C@H]2CN(C(=O)c3ccccc3)CC[C@H]21" , which is 15.9

Kindly note the recorded cytotoxicity at 70.5 h for "O=C(NCC(F)F)c1ccc(S(=O)(=O)NCCc2c[nH]cn2)cc1" , which is -6.02

Kindly note the recorded cytotoxicity at 70.5 h for "CC(C)COc1cccc(-c2nc3c([nH]2)CCNC3)c1" , which is 3.41

Kindly note the recorded cytotoxicity at 70.5 h for "Cc1cc(C)c(CNC(=O)NCCNc2ccccn2)c(=O)[nH]1" , which is -9.53

Kindly note the recorded cytotoxicity at 70.5 h for O=C(c1cnn[nH]1)N1CCCC1c1nc2cc(F)ccc2[nH]1 (stereo not drawn) , which is -12.1

Kindly note the recorded cytotoxicity at 70.5 h for "CN1C(=O)CC2(CCN(S(=O)(=O)N(C)C)CC2)c2ccccc21" , which is 33.2

Kindly note the recorded cytotoxicity at 70.5 h for "O=C(c1ccncc1)N1C[C@@H]2CC[C@H](C1)N(S(=O)(=O)c1cccnc1)C2" , which is -5.9

Kindly note the recorded cytotoxicity at 70.5 h for Oc1cc(CC2COCCN(CC3(O)CCOCC3)C2)ncn1 (stereo not drawn) , which is 23

Kindly note the recorded cytotoxicity at 70.5 h for "CN(CC1(CO)CCOCC1)[C@@H]1c2ccccc2C2(CCNCC2)[C@H]1O" , which is 19

Kindly note the recorded cytotoxicity at 70.5 h for "CCCC(=O)N1CCC(O)(Cn2c(CC)nc3ccccc3c2=O)CC1" , which is -16.7

Kindly note the recorded cytotoxicity at 70.5 h for "Cc1csc(CNC(=O)N(C)Cc2cnn(C)c2)n1" , which is -15.5

Kindly note the recorded cytotoxicity at 70.5 h for O=C(CCCn1cncn1)N1CCCC1c1nc(-c2ccccc2)no1 (stereo not drawn) , which is -1.82

Kindly note the recorded cytotoxicity at 70.5 h for "CCN1CCN(S(=O)(=O)c2ccc(Cc3cc(C)n[nH]c3=O)cc2)CC1" , which is -10.8

Kindly note the recorded cytotoxicity at 70.5 h for CN(C)CCCN(Cc1ccco1)Cc1ccnn1C1CCCCO1 (stereo not drawn) , which is -8.64

Kindly note the recorded cytotoxicity at 70.5 h for "CN(Cc1ccc2c(c1)OCCO2)Cc1nnnn1-c1ccccc1" , which is -17.2

Kindly note the recorded cytotoxicity at 70.5 h for "CCc1nc(CNc2ccc(C(=O)NCc3ccco3)cc2C)no1" , which is -9.99

Kindly note the recorded cytotoxicity at 70.5 h for Cc1ccccc1-c1cc(NC(=O)NC2CCC(O)CC2)n(CCO)n1 (stereo not drawn) , which is -3.45

Kindly note the recorded cytotoxicity at 70.5 h for "Cn1nc(CNS(=O)(=O)Cc2ccccc2F)c2c1CCCC2" , which is -5.77

Kindly note the recorded cytotoxicity at 70.5 h for Cc1cnc(N2CCCC3(CCN(Cc4csc(C)n4)C3=O)C2)nc1 (stereo not drawn) , which is 3.6

Kindly note the recorded cytotoxicity at 70.5 h for CS(=O)(=O)c1ccc(NCCC2CCCO2)c(S(C)(=O)=O)c1 (stereo not drawn) , which is -16.8

Kindly note the recorded cytotoxicity at 70.5 h for O=C1N(Cc2cccc(F)c2F)CCCC1(O)CNCc1ccccn1 (stereo not drawn) , which is -2.1

Kindly note the recorded cytotoxicity at 70.5 h for "O=C1CCCCN1CCc1nc(-c2cccnn2)no1" , which is -2.5

Kindly note the recorded cytotoxicity at 70.5 h for "CC(=O)N1[C@H](CN(C)C)C[C@@H]2CN(C(=O)Cc3cccs3)CC[C@@H]21" , which is -21.3

Kindly note the recorded cytotoxicity at 70.5 h for "CCc1nc(NC(=O)NCCc2scnc2C)nn1C" , which is 16.5

Kindly note the recorded cytotoxicity at 70.5 h for CCNC(=O)N1CCC(NC(=O)NCCCc2cccc(F)c2)C1 (stereo not drawn) , which is -4.92

Kindly note the recorded cytotoxicity at 70.5 h for O=C(Nc1ccc(-c2ccn[nH]2)cc1)C1CCCN(Cc2ccoc2)C1 (stereo not drawn) , which is 1.09

Kindly note the recorded cytotoxicity at 70.5 h for "O=C(C1CCOCC1)N1CCc2ncnc(-c3ccccc3)c2CC1" , which is 1.86

Kindly note the recorded cytotoxicity at 70.5 h for "Cc1cc(C(=O)N2C[C@@H](C(=O)O)[C@H](c3ccccc3C)C2)c(C)o1" , which is 13.2

Kindly note the recorded cytotoxicity at 70.5 h for CC(CO)NC(=O)Nc1ccc(CC#N)cc1 (stereo not drawn) , which is -4.42

Kindly note the recorded cytotoxicity at 70.5 h for "Cc1cccc(CN2CC[C@H]3C[C@@H](C)O[C@@H]3C2)n1" , which is 10.9

Kindly note the recorded cytotoxicity at 70.5 h for "CN(CCN(C)S(=O)(=O)CC1CCOCC1)c1ccccc1" , which is -3.42
